The following compounds are shown together with reported Ki values.
- tested_system: full-length ATR (Homo sapiens, UniProt Q13535)
- Construct: Assays were carried out at 25° C. in the presence of 5 nM full-length ATR
- Sequence (Q13535 whole entry): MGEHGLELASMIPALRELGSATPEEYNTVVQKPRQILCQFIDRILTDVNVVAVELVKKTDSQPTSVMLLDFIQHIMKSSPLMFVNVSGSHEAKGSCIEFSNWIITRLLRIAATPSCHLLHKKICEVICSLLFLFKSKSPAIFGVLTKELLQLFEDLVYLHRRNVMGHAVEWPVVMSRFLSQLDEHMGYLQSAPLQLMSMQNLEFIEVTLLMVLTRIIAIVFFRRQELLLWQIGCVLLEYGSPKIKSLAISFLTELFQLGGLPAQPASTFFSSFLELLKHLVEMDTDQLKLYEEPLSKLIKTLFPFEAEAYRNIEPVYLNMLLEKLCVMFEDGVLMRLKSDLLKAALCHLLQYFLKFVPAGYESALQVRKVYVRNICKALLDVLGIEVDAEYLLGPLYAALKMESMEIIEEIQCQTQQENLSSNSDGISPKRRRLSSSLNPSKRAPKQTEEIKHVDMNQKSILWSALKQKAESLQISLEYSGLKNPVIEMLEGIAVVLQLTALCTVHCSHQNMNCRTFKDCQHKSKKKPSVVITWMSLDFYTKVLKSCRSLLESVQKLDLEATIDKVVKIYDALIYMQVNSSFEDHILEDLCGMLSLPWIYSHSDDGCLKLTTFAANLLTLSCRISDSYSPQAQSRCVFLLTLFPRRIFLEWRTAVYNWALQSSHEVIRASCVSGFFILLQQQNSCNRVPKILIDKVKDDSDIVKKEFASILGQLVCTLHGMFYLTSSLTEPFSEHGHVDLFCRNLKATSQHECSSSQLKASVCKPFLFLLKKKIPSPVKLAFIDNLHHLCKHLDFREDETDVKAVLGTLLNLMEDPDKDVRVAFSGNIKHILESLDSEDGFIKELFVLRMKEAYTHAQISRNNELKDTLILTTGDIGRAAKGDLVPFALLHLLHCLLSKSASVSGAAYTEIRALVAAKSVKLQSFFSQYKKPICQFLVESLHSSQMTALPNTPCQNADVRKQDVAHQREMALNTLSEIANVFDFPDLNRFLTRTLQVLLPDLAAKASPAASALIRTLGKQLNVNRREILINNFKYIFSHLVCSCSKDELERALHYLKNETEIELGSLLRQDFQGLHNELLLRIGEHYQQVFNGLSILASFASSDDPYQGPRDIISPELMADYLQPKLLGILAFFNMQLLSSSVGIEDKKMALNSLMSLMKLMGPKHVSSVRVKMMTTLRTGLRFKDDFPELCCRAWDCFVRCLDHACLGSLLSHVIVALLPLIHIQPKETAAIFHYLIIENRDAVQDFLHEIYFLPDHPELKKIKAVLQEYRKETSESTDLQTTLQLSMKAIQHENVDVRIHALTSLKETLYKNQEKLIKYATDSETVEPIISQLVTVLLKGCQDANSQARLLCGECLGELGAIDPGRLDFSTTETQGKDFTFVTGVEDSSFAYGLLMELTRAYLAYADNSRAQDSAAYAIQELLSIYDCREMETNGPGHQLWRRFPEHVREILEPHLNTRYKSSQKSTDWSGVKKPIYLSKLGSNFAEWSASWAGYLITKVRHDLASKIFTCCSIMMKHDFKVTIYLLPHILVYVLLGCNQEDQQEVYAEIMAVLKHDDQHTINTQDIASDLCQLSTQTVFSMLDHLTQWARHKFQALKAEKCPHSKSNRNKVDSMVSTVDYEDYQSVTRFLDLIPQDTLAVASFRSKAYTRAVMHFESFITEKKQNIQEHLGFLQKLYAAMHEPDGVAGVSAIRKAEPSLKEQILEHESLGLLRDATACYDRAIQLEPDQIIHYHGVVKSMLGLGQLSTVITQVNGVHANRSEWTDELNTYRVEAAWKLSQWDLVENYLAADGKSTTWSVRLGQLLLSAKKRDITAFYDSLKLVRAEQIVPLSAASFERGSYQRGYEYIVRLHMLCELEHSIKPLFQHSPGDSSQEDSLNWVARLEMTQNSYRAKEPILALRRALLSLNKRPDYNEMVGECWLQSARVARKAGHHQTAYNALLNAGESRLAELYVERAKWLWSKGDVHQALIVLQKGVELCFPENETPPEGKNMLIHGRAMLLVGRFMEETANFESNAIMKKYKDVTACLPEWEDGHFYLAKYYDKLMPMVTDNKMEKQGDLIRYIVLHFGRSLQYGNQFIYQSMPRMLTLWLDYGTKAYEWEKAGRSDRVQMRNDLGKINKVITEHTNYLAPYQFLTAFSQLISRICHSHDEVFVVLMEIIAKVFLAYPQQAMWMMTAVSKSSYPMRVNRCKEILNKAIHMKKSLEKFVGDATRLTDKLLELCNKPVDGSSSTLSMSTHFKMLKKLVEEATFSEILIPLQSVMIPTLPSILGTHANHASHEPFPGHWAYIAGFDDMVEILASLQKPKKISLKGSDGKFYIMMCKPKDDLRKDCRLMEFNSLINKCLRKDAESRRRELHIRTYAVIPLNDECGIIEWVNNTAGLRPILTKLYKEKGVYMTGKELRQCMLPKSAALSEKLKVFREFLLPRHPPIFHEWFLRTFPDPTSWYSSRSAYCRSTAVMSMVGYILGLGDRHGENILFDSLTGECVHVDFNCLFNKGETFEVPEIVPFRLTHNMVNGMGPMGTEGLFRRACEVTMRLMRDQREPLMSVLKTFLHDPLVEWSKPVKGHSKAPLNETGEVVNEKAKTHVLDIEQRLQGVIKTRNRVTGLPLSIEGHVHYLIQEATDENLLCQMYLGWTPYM
- test_details: ATR Inhibition Assay (radioactive-phosphate incorporation)
- Type: biochemical
- test_settings: Ki(app); 5 nM full-length ATR, 10 μM [γ-33P]ATP, 800 μM target peptide, 25° C.

Answered cases to consult:
CNCc1cccc(C(=O)Nc2c[nH]c3ncc(-c4ccc(S(=O)(=O)C(C)C)cc4)nc23)c1 :: ≤ 10 nM
CC(C)S(=O)(=O)c1ccc(-c2cnc3[nH]cc(NC(=O)c4ccc(N5CCC[C@@H](N)C5)cc4)c3n2)cc1 :: ≤ 10 nM
CC(C)S(=O)(=O)c1ccc(-c2cnc3[nH]cc(NS(=O)(=O)c4ccccc4)c3n2)cc1 :: 100 to 500 nM

**Q:** State the recorded Ki for this entry: COc1cccc(C(=O)Nc2c[nH]c3ncc(-c4ccc(S(=O)(=O)C(C)C)cc4)nc23)n1
**A:** 10 to 100 nM

---

- tested_system: full-length ATR (Homo sapiens, UniProt Q13535)
- Construct: Assays were carried out at 25° C. in the presence of 5 nM full-length ATR
- test_details: ATR Inhibition Assay (radioactive-phosphate incorporation)
- test_settings: Ki(app); 5 nM full-length ATR, 10 μM [γ-33P]ATP, 800 μM target peptide, 25° C.
- Procedure: Compounds were screened for their ability to inhibit ATR kinase using a radioactive-phosphate incorporation assay. Assays were carried out in a mixture of 50 mM Tris/HCl (pH 7.5), 10 mM MgCl2 and 1 mM DTT. […] After removing mean background values for all of the data points, Ki(app) data were calculated from non-linear regression analysis of the initial rate data using the Prism software package (GraphPad Prism version 3.0cx for Macintosh, GraphPad Software, San Diego Calif., USA).
pKi: −log10 of the molar value.
measured_endpoint: pKi

Answered cases to consult:
CC(C)S(=O)(=O)c1ccc(-c2cnc3[nH]cc(NC(=O)c4ccc(N5CC[C@H](N)C5)cc4)c3n2)cc1 :: ≥ 8.00
CC(C)C(=O)Nc1c[nH]c2ncc(-c3ccc(S(=O)(=O)C(C)C)cc3)nc12 :: 6.30 to 7.00
CC(C)S(=O)(=O)c1ccc(-c2cnc3[nH]cc(NC(=O)CC4CC4)c3n2)cc1 :: 7.00 to 8.00
CC(C)S(=O)(=O)c1ccc(-c2cnc3[nH]cc(NC(=O)c4ccc5c(c4)CNC5)c3n2)cc1 :: ≥ 8.00
CC(C)S(=O)(=O)c1ccc(-c2cnc3[nH]cc(NC(=O)c4cccc(CN)c4)c3n2)cc1 :: 7.00 to 8.00

As a next step, examine the molecule that follows.
**Q:** State the recorded pKi for this entry: CC(C)S(=O)(=O)c1ccc(-c2cnc3[nH]cc(NC(=O)c4cccc(C(=O)O)c4)c3n2)cc1
**A:** 6.30 to 7.00

---

- tested_system: full-length ATR (Homo sapiens)
- Construct: Assays were carried out at 25° C. in the presence of 5 nM full-length ATR
- test_details: ATR Inhibition Assay (radioactive-phosphate incorporation)
- test_settings: Ki(app); 5 nM full-length ATR, 10 μM [γ-33P]ATP, 800 μM target peptide, 25° C.
pKi: −log10 of the molar value.
measured_endpoint: pKi

Answered cases to consult:
CC(C)S(=O)(=O)c1ccc(-c2cnc3[nH]cc(NC(=O)Nc4ccccc4)c3n2)cc1 [Compound I-43] :: 7.00 to 8.00
CC(C)S(=O)(=O)c1ccc(-c2cnc3[nH]cc(NC(=O)c4ccc(N)cc4)c3n2)cc1 [Compound I-3] :: 7.00 to 8.00
CC(C)S(=O)(=O)c1ccc(-c2cnc3[nH]cc(NC(=O)c4cc5c(s4)CCNC5)c3n2)cc1 [Compound I-26] :: ≥ 8.00

As a next step, examine the molecule that follows.
**Q:** Param readout = pKi; param system = full-length ATR (Homo sapiens); param query = CC(C)S(=O)(=O)c1ccc(-c2cnc3[nH]cc(NC(=O)c4ccccc4O)c3n2)cc1 [Compound I-14] ; response: value
**A:** ≥ 8.00

---

The following compounds are shown together with reported Ki values.
- tested_system: full-length ATR (Homo sapiens)
- Construct: Assays were carried out at 25° C. in the presence of 5 nM full-length ATR
- test_details: ATR Inhibition Assay (radioactive-phosphate incorporation)
- test_settings: Ki(app); 5 nM full-length ATR, 10 μM [γ-33P]ATP, 800 μM target peptide, 25° C.

Answered cases to consult:
CC(C)S(=O)(=O)c1ccc(-c2cnc3[nH]cc(NC(=O)c4ccc(O)cc4)c3n2)cc1 :: ≤ 10 nM
CC(C)S(=O)(=O)c1ccc(-c2cnc3[nH]cc(NC(=O)Cc4nnn[nH]4)c3n2)cc1 :: 10 to 100 nM
CC(C)S(=O)(=O)c1ccc(-c2cnc3[nH]cc(NC(=O)c4ccncc4)c3n2)cc1 :: 10 to 100 nM
CC(C)S(=O)(=O)c1ccc(-c2cnc3[nH]cc(NC(=O)COc4ccccc4)c3n2)cc1 :: 100 to 500 nM
CC(C)S(=O)(=O)c1ccc(-c2cnc3[nH]cc(NC(=O)C4CCOC4)c3n2)cc1 (stereo not drawn) :: 100 to 500 nM
CC(C)S(=O)(=O)c1ccc(-c2cnc3[nH]cc(NC(=O)c4cccc(N)c4)c3n2)cc1 :: ≤ 10 nM
CC(C)S(=O)(=O)c1ccc(-c2cnc3[nH]cc(NC(=O)c4ccc(N5CCC[C@H](N)C5)cc4)c3n2)cc1 :: 10 to 100 nM
CC(C)S(=O)(=O)c1ccc(-c2cnc3[nH]cc(NC(=O)c4cncs4)c3n2)cc1 :: 10 to 100 nM
CC(C)S(=O)(=O)c1ccc(-c2cnc3[nH]cc(NC(=O)c4ccc(N5CCC(N)CC5)cc4)c3n2)cc1 :: 10 to 100 nM
CC(C)S(=O)(=O)c1ccc(-c2cnc3[nH]cc(NC(=O)c4cccc(C5CNCCN5)c4)c3n2)cc1 (stereo not drawn) :: 10 to 100 nM

As a next step, examine the compound that follows.
**Q:** Param readout = Ki; param system = full-length ATR (Homo sapiens); param query = CC(C)S(=O)(=O)c1ccc(-c2cnc3[nH]cc(NC(=O)c4ccc(CN[C@H]5CCOC5)cc4)c3n2)cc1 ; response: value
**A:** ≤ 10 nM

---

The following compounds are shown together with reported Ki values.
- tested_system: full-length ATR (Homo sapiens)
- Construct: Assays were carried out at 25° C. in the presence of 5 nM full-length ATR
- test_details: ATR Inhibition Assay (radioactive-phosphate incorporation)
- test_settings: Ki(app); 5 nM full-length ATR, 10 μM [γ-33P]ATP, 800 μM target peptide, 25° C.

Answered cases to consult:
CC(C)S(=O)(=O)c1ccc(-c2cnc3[nH]cc(NC(=O)c4ccccn4)c3n2)cc1 :: 10 to 100 nM
CC(C)S(=O)(=O)c1ccc(-c2cnc3[nH]cc(NC(=O)c4ccc(NC5CNC5)cc4)c3n2)cc1 :: ≤ 10 nM
CC(CCO)S(=O)(=O)c1ccc(-c2cnc3[nH]cc(NC(=O)c4ccccc4)c3n2)cc1 (stereo not shown) :: ≤ 10 nM
CC(C)S(=O)(=O)c1ccc(-c2cnc3[nH]cc(NC(=O)c4ccc(N5CC[C@@H](N)C5)cc4)c3n2)cc1 :: ≤ 10 nM
CC(C)S(=O)(=O)c1ccc(-c2cnc3[nH]cc(NC(=O)c4cc5c(s4)CNCC5)c3n2)cc1 :: ≤ 10 nM

**Q:** State the recorded Ki for this entry: CC(C)S(=O)(=O)c1ccc(-c2cnc3[nH]cc(NC(=O)c4ccccc4F)c3n2)cc1
**A:** 10 to 100 nM

**Q:** State the recorded Ki for this entry: CC(C)S(=O)(=O)c1ccc(-c2cnc3[nH]cc(NC(=O)c4ccc(Cl)cc4)c3n2)cc1
**A:** 10 to 100 nM

**Q:** State the recorded Ki for this entry: CC(C)S(=O)(=O)c1ccc(-c2cnc3[nH]cc(NC(=O)C4CCNCC4)c3n2)cc1
**A:** 10 to 100 nM

**Q:** State the recorded Ki for this entry: CC(C)S(=O)(=O)c1ccc(-c2cnc3[nH]cc(NC(=O)Cc4ccccc4)c3n2)cc1
**A:** 100 to 500 nM

**Q:** State the recorded Ki for this entry: CC(C)S(=O)(=O)c1ccc(-c2cnc3[nH]cc(NC(=O)c4ccc(C5CCCN5)cc4)c3n2)cc1 (stereo not shown)
**A:** ≤ 10 nM

**Q:** State the recorded Ki for this entry: CC(C)S(=O)(=O)c1ccc(-c2cnc3[nH]cc(NC(=O)CC#N)c3n2)cc1
**A:** 10 to 100 nM

**Q:** State the recorded Ki for this entry: CNCc1ccc(C(=O)Nc2c[nH]c3ncc(-c4ccc(S(=O)(=O)C(C)C)cc4)nc23)cc1
**A:** ≤ 10 nM

**Q:** State the recorded Ki for this entry: CC(C)S(=O)(=O)c1ccc(-c2cnc3[nH]cc(NC(=O)c4cccc(Cl)c4)c3n2)cc1
**A:** 10 to 100 nM
